# Target: Env of HIV-1 strain 3016.v5.c45 (HIV-1)
# Method notes: cell-based or functional assay
Property measured: neutralization IC50

Ask | What does the record list as neutralization IC50 for γ44κ11 (antibody, V domains shown) VH: QIHLVQSGTEVKKPGSSVTVSCKAYEVNTFGLYAVNWVRQAPGQSLEYIGQIWRWKSSASHHFRGRVLISAVDLTGSSPPISSLEIKNVTSDDTAVYFCTTTSTHDKWSGLHHDGVMAFSSWGQGTLISVSA VL: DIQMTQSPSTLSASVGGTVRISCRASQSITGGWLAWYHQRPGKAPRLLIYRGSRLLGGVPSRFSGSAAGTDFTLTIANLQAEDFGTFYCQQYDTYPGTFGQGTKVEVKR ?
Reply | > 15 µg/mL

Ask | Follow-up entry: γ52κ11 (antibody, V domains shown) VH: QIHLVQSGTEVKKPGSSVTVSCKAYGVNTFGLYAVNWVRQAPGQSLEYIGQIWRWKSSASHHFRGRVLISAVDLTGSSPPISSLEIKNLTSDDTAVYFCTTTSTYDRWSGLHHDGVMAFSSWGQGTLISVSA VL: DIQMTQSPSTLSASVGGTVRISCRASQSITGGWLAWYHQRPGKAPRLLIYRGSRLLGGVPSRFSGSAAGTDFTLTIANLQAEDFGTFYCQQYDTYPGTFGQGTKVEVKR
Reply | 0.161 µg/mL

Ask | Follow-up entry: γ20κ3 (antibody, V domains shown) VH: QIHLVQSGTEVKKPGSSVAVSCKAYGVNTFGLYAVNWVRQAPGQSLEYIGQIWRWKSSASHDFRGRVIISAVDLTGSSPPISSLEIKNLTSDDTAVYFCTATSTPDYWSGLHHDGVMAFSSWGQGTLISVSA VL: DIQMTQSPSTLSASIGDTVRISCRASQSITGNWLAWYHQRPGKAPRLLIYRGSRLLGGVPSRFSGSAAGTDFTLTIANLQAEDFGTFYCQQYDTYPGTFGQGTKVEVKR
Reply | > 15 µg/mL

Ask | Follow-up entry: γ3κ11 (antibody, V domains shown) VH: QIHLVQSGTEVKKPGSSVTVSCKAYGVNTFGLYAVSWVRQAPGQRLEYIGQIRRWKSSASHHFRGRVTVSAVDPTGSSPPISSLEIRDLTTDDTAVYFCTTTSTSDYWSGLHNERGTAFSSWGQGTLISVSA VL: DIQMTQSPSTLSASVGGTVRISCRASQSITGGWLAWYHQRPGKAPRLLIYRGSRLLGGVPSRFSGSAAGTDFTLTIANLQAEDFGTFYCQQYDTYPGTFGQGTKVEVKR
Reply | 0.145 µg/mL

Ask | Follow-up entry: γ46κ61 (antibody, V domains shown) VH: QIHLVQSGTEVKKPGSSVTVSCKAYGVNTFGLYAVNWVRQAPGQGLEYIGQIWRWKSSASHHFRGRVLISAVDLTGSSPPISSLEIKNVTSDDTAVYFCTTTSTYDKWSGLHHDGVVAFSSWGQGTLISVSA VL: DIQMTQSPSTLSASIGDTVRISCRASQSITGNWVAWYHQRPGKAPRLLIYRGAALLGGVPSRFSGSAAGTDFTLTIGNLQAEDFGTFYCQQYDTYPGTFGQGTKVEVKR
Reply | 0.383 µg/mL

Ask | Follow-up entry: γ15κ61 (antibody, V domains shown) VH: QIHLVQSGTEVKKPGSSVTVSCKAYGVNTFGLYAVNWVRQAPGQSLEYIGQIWRWKSSASHHFRGRVIISAVDLTGSSPPISSLEIKNLTSDDTAVYFCTTASTYDKWSGLHHDGVMAFSSWGQGTLISVSA VL: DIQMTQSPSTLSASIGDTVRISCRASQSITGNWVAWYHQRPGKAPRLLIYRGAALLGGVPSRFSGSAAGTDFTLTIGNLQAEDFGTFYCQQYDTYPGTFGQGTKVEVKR
Reply | 1.21 µg/mL

Ask | Follow-up entry: γ22κ3 (antibody, V domains shown) VH: QIHLVQSGTEVKKPGSSVTVSCKAYGVNTFGLYAVNWVRQAPGQSLEYIGQIWRWKSSASHHFRGRVLISAVDLTGPSPPISSLEIKNLTSDDTAVYFCTTTSTYDKWSGLHHDGVMAFSSWGQGTLISVSA VL: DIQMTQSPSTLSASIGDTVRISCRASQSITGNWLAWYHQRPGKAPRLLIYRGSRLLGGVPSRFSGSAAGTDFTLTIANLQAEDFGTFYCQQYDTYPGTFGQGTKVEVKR
Reply | > 15 µg/mL

Ask | Follow-up entry: γ15κ18 (antibody, V domains shown) VH: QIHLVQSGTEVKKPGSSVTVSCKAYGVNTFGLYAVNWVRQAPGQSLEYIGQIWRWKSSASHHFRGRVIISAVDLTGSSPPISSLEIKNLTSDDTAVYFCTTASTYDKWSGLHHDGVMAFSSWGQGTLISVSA VL: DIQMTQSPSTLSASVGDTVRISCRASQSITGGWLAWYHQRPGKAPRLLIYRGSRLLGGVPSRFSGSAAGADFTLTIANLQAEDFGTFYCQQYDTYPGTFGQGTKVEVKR
Reply | 0.664 µg/mL

Ask | Follow-up entry: γ20κ11 (antibody, V domains shown) VH: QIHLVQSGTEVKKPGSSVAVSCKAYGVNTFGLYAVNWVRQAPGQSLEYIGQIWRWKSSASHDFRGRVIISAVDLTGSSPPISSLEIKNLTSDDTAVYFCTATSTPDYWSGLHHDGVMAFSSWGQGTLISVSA VL: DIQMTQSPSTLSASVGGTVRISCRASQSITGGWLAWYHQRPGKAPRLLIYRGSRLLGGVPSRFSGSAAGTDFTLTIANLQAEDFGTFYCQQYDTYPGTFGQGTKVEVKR
Reply | > 15 µg/mL

Ask | Follow-up entry: 8ANC3044 (antibody, V domains shown) VH: QIHLVQSGTEVRKPGSSVTVSCKAYGVNTFGLYAVNWVRQAPGQSLEYIGQIWRWKSSASHHFRGRVLISAVDLTGSSPPISSLEIKNLTSDDTAVYFCTTTSTYDKWSGLHHDGVMAFSSWGQGTLISVSA VL: DIQMTQSPSTLSASIGDTVRISCRASQSITGNWVAWYQQRPGKAPRLLIYRGAALLGGVPSRFSGSAAGTDFTLTIGNLQTEDFGTFYCQQYDTYPGTFGQGTKVEVKR
Reply | 0.242 µg/mL

Source: patent US20180171001A1
